Just for reference, patent US20240208981A1 is where these values come from.

biological target: human OX2R (Homo sapiens (Human), UniProt O43614); experiment: Calcium flux in cells stably expressing OX2 receptor (FLIPR, Fluo-8 AM); conditions: CHO-K1/human OX2R cells; inhibition of calcium flux, agonist OX-B at EC80
Sequence (O43614 whole entry): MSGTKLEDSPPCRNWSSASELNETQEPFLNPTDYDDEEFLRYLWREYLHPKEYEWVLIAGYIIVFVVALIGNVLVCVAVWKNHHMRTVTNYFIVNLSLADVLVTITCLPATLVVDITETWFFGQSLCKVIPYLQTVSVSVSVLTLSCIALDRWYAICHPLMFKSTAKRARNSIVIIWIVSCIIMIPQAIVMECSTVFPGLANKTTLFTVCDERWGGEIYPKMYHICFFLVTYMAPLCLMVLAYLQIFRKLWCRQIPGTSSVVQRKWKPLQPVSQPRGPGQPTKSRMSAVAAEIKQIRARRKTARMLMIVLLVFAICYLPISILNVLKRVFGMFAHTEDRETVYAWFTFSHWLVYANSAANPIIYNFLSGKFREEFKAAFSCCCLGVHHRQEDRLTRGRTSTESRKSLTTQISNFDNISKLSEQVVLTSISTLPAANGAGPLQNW
Measured log10 of IC50 accompanies every entry in the list below.
Observation Type: log10 of IC50 (log10 of the value in µM)

{"columns": ["Smiles Code", "Observation Type", "Val"],
 "data": [
  ["CC(C)(O)c1nc(N2C[C@H]3CN(C(=O)c4c(F)cccc4-n4nccn4)C[C@H]3C2)ccc1F", "log10 of IC50", -1.44],
  ["Cc1cc(C)nc(N2C[C@H]3CN(C(=O)c4ccccc4OC(F)(F)C(F)F)C[C@H]3C2)n1", "log10 of IC50", -1.28],
  ["Cc1nc(N2C[C@H]3CN(C(=O)c4ccc(F)cc4-n4nccn4)C[C@H]3C2)nc(C(C)(C)O)c1F", "log10 of IC50", -1.60],
  ["Cc1cc(C)nc(N2C[C@H]3CN(C(=O)c4c(F)cccc4-n4ncc(C5CC5)n4)C[C@H]3C2)n1", "log10 of IC50", -1.00],
  ["Cc1cc(C(C)(C)O)nc(N2C[C@H]3CN(C(=O)c4c(F)cccc4-c4ncccn4)C[C@H]3C2)n1", "log10 of IC50", -2.09],
  ["Cc1cc(C(C)(C)F)nc(N2C[C@H]3CN(C(=O)c4c(F)cccc4-n4nccn4)C[C@H]3C2)n1", "log10 of IC50", -2.01],
  ["Cc1cc(N2C[C@H]3CN(C(=O)c4c(O)cccc4-n4nccn4)C[C@H]3C2)nc(C(C)(C)O)c1", "log10 of IC50", -1.23]
]}

----------
# maps each entry to its IC50
biological target: CYP450 2D6 (Homo sapiens (Human), UniProt P10635); assay: CYP enzyme single point inhibition assay, human liver microsomes, 2D6; assay type: in vitro ADME; conditions: single-point method
Sequence (P10635 whole entry): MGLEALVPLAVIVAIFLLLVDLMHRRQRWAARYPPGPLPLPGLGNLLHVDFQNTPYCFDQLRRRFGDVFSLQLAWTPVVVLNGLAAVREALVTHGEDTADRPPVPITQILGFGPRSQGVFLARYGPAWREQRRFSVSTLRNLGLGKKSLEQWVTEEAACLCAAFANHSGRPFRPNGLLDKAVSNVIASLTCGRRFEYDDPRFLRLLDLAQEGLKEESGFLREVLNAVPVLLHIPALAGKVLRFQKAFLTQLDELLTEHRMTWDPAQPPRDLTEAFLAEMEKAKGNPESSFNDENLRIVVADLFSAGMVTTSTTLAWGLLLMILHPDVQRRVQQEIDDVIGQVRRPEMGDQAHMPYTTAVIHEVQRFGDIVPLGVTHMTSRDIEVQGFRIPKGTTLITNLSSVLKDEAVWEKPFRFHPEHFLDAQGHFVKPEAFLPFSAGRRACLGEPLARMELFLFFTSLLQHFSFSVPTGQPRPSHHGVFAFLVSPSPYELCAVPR

{"columns": ["Smiles Code", "IC50"],
 "data": [
  ["Cc1nc(N2C[C@H]3CN(C(=O)c4cccc(F)c4-n4nccn4)C[C@H]3C2)nc(C(C)(C)O)c1F", "> 100 µM"],
  ["CC(C)(O)c1nc(N2C[C@H]3CN(C(=O)c4c(F)cccc4-c4ncccn4)C[C@H]3C2)ncc1F", "> 100 µM"]
]}

----------
Measured IC50 of individual entries
target: human OX2R (Homo sapiens (Human)); assay: Calcium flux in cells stably expressing OX2 receptor (FLIPR, Fluo-8 AM); details: CHO-K1/human OX2R cells; inhibition of calcium flux, agonist OX-B at EC80

{"columns": ["Compound", "Reading Unit", "IC50"],
 "data": [
  ["Cc1cc(C)nc(N2C[C@H]3CN(C(=O)c4ccccc4-c4nc5ccccc5o4)C[C@H]3C2)n1 [Compound 50]", "nM", 71.1],
  ["Cc1cc(N2C[C@H]3CN(C(=O)c4c(F)cccc4-n4nccn4)C[C@H]3C2)nc(C(C)(C)O)c1 [Compound 60]", "nM", 55.2],
  ["Cc1ccc(N2C[C@H]3CN(C(=O)c4c(F)cccc4-n4nccn4)C[C@H]3C2)nc1C(C)(C)O [Compound 48]", "nM", 74.5],
  ["Cc1cc(C(C)(C)O)nc(N2C[C@H]3CN(C(=O)c4c(F)cccc4-n4nccn4)C[C@H]3C2)n1 [Compound 3]", "nM", 44.4]
]}
